test system: hyperlipemia; assay: Anti-hyperlipemia test in rats on high fat food (Experimental Example 1); format: in vivo, Male Wistar rats; conditions: 30 mg/kg, peroral once a day, two weeks, control 100, Table 1
Here, each record is paired with measured Blood serum triglyceride (%) data.
Attribute measured: Blood serum triglyceride (%)

{"Compound": "COC(=O)C1=CO[C@@H](O[C@@H]2O[C@H](COC(C)=O)[C@@H](OC(C)=O)[C@H](OC(C)=O)[C@H]2OC(C)=O)[C@@H]2C(C)=CC[C@H]12", "Attribute measured": "Blood serum triglyceride (%)", "Unit abbreviation": "%", "Measured number": 64.6}
{"Compound": "COC(=O)C1=COC(O)[C@@H]2[C@@H](CO)CC[C@H]12 (stereo partly drawn)", "Attribute measured": "Blood serum triglyceride (%)", "Unit abbreviation": "%", "Measured number": 80.4}
{"Compound": "COC(=O)C1=COC(O)[C@@H]2C(C)=CC[C@H]12 (stereo partly drawn)", "Attribute measured": "Blood serum triglyceride (%)", "Unit abbreviation": "%", "Measured number": 60.0}
{"Compound": "COC(=O)C1=CO[C@@H](O[C@@H]2O[C@H](CO)[C@@H](O)[C@H](O)[C@H]2O)[C@@H]2C(C)=CC[C@H]12", "Attribute measured": "Blood serum triglyceride (%)", "Unit abbreviation": "%", "Measured number": 68.7}
{"Compound": "COC(=O)C1=COC(O)[C@@H]2[C@H](C)CC[C@H]12 (stereo partly drawn)", "Attribute measured": "Blood serum triglyceride (%)", "Unit abbreviation": "%", "Measured number": 76.5}
{"Compound": "COC(=O)C1=COC(O)[C@H]2[C@@H]1CC[C@@H]2C (stereo partly drawn)", "Attribute measured": "Blood serum triglyceride (%)", "Unit abbreviation": "%", "Measured number": 91.0}

----------
tested on: bile secretion; test: Cholagogic action, bile secretion (Experimental Example 5); format: in vivo, male Wistar rats; settings: 0-1 hour after dose, intraduodenal; control 82.9; Table 6
Attribute measured: Bile secretion amount, percentage of the hour before dose (%)

{"Compound": "C[C@H]1COC(O)[C@H]2[C@@H]1CC[C@@H]2C (stereo partly shown)", "Measured number": 137.2}
{"Compound": "COC(=O)C1=COC(O)[C@H]2[C@@H]1CC[C@@H]2C (stereo partly shown)", "Measured number": 146.9}
{"Compound": "C[C@@H](CO)[C@H]1CC[C@H](C)[C@H]1CO", "Measured number": 163.8}
{"Compound": "CC1=COC(O)[C@H]2[C@@H]1CC[C@@H]2C (stereo partly shown)", "Measured number": 156.2}

----------
assay: Acute toxicity test; conditions: mouse, in vivo, ip; male S.P.P. mice, abdominally administered; Table 11
Param label: returns 1 when LD50 < 500 mg/kg, returns 0 otherwise, including exact equality.

{"Compound": "COC(=O)C1=CO[C@@H](OC2CCCCO2)[C@@H]2C(CO)=CC[C@H]12 (single isomer, unassigned) [Definite Example 16]", "Label class": 1}
{"Compound": "CC1=COC(O)[C@H]2[C@@H]1CC[C@@H]2C (some centres unmarked) [Definite Example 43]", "Label class": 1}
{"Compound": "COC(=O)C1=CO[C@@H](OC(C)=O)[C@H]2[C@@H]1CC1OCC12OC(C)=O (some centres unmarked) [Definite Example 30]", "Label class": 1}
{"Compound": "OCC1=CC[C@@H]2C(CO)=CO[C@@H](OC3CCCCO3)[C@H]12 (some centres unmarked) [Definite Example 18]", "Label class": 0}
{"Compound": "COC(=O)C1=COC(O)[C@@H]2C(C)=CC[C@H]12 (some centres unmarked) [Definite Example 9]", "Label class": 1}
{"Compound": "COC(=O)C1=COC2OCC3CCC1C32 (centres unmarked) [Definite Example 12]", "Label class": 0}
{"Compound": "C[C@H]1COC(O)[C@H]2[C@@H]1CC[C@@H]2C (some centres unmarked) [Definite Example 44]", "Label class": 1}
